FYI, the data here is from patent US20240376185A1.

Quick list: absorbance at 450 nm per entry.
- subjectOfTest: guinea pig IgG
- test: ELISA, coated antigen, E. coli supernatant
Give the quantity in A450, number only.

**Q:** // query absorbance at 450 nm value for entry SVG18 (VHH, not shown: large carriers) VHH: QVQLQQSGGGLVQPGGSLRLSCAASGFTFSSYAMSWVRQAPGKGLEWVSAINSGGDIISYADSVKGRFTISRDNAKNTLYLQMNSLKPEDTAVYYCAKSPIVRTYGGYDYWGQGTQVTVSS
**A:** 0.174

**Q:** // query absorbance at 450 nm value for entry SVG19 (VHH, not shown: large carriers) VHH: QVQLQQSGGGLVQPGGSLRLSCAASGFTFSSYAMSWVRQAPGKGLEWVSAINSGGGSTSYADSVKGRFTISRDNAKNTLYLQMNSLKPEDTAVYYCAKDFDPWGVGTGGYDYWGQGTQVTVSS
**A:** 0.435

**Q:** // query absorbance at 450 nm value for entry SVG13 (VHH) VHH: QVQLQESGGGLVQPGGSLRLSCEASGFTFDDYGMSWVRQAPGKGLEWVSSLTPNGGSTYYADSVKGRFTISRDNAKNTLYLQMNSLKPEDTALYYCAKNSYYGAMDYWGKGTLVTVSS
**A:** 0.579
